Sourced from PubChem BioAssay

Could you please report measured composite z-score for the items listed next?
tested on: Plasmodium falciparum Sir2 (PF13_0152, Sir2A); experiment: Plasmodium falciparum Sir2A binding compounds – biochemical, small-molecule microarray, 635 nm fluorescence, primary screen (AID 1098); conditions: fluorescence 635 nm, higher = more signal;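 also: score merges spot fluorescence intensity with its signal-to-noise ratio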
Enter a number only.

// CC(C)(C)OC(=O)CC[C@@]1(C(N)=O)N=C(c2ccc(OCCCO)cc2)O[C@@H]1c1ccccc1N=[N+]=[N-] : composite z-score value = 1.73

// CO[C@H]1O[C@H](CO)[C@@H](OC(=O)Nc2ccccc2-c2ccccc2)[C@H](OC(=O)Nc2ccccc2-c2ccccc2)[C@H]1OC(=O)Nc1ccccc1-c1ccccc1 : composite z-score value = 1.54

// O=C1O[C@@H](c2ccccc2)[C@@H](c2ccccc2)N2[C@@H](c3ccccc3OCCO)[C@]3(C(=O)Nc4ccc(C#CC5(O)CCCCCC5)cc43)[C@@H](C(=O)NC[C@H](O)c3ccccc3)[C@H]12 : composite z-score value = 1.06

// CO[C@H]1O[C@H](CO)[C@@H](OC(=O)Nc2cccc(F)c2)[C@H](OC(=O)Nc2ccccc2-c2ccccc2)[C@@H]1OC(=O)Nc1ccccc1-c1ccccc1 : composite z-score value = 1.13

// O=C1OCCC=C[C@H]2OC34C=CCN(CCN5CCOCC5)C(=O)[C@H]3N(CCO)C(=O)[C@@H]4C12 (stereo partly drawn) : composite z-score value = -0.378

// COC(=O)[C@@]1(Cc2ccccc2)[C@H]2c3cc(C(=O)N(C)C)n(Cc4ccccc4)c3C[C@H]2CN1C(=O)c1ccccc1 : composite z-score value = 1.05

// CCCNC(=O)[C@@]1(c2ccc([N+](=O)[O-])cc2)CC(=O)N(CC23CC4CC(CC(C4)C2)C3)[C@@H]1c1ccc(CO)cc1I : composite z-score value = 0.441

// CO[C@H]1O[C@H](CO)[C@@H](OC(=O)Nc2ccc3c(c2)OCO3)[C@H](OC(=O)Nc2ccc3c(c2)OCO3)[C@H]1OC(=O)Nc1ccc2c(c1)OCO2 : composite z-score value = 1.49

// C=CCNC(=O)[C@H]1[C@@H]2C(=O)O[C@@H](c3ccccc3)[C@@H](c3ccccc3)N2[C@@H](c2ccc(OCCO)cc2)[C@]12C(=O)N(C(=O)OCCOC)c1ccc(C#CC3(O)CCCCCC3)cc12 : composite z-score value = 1.55

// O=C1O[C@@H](c2ccccc2)[C@@H](c2ccccc2)N2[C@@H](c3ccc(O)cc3)[C@]3(C(=O)Nc4ccc(C#CCCO)cc43)[C@@H](C(=O)O)[C@H]12 : composite z-score value = 1.67

// COCCOC(=O)N1C(=O)[C@@]2(c3cc(C#CCCO)ccc31)[C@H](c1ccc(O)cc1)N1[C@H](c3ccccc3)[C@H](c3ccccc3)OC(=O)[C@H]1[C@@H]2C(=O)N1CCCCCCC1 : composite z-score value = 1.4

// [N-]=[N+]=NCc1ccccc1C[C@]1(C(=O)NCCN2CCOCC2)N=C(c2ccc(OCCCO)cc2)O[C@H]1c1ccccc1CN=[N+]=[N-] : composite z-score value = 1.5

// COCC1=C([C@H](O)CCc2ccccc2)[C@H](CO)[C@@H]2C(=O)N(Cc3ccccc3)C(=O)[C@@H]2C1 : composite z-score value = -0.0333

// CC(C)NC(=O)[C@@]1(c2ccc([N+](=O)[O-])cc2)CC(=O)N(C(C)C)[C@@H]1c1ccc(CO)cc1 : composite z-score value = -0.277

// [N-]=[N+]=NCc1ccccc1[C@H]1OC(c2ccc(OCCCO)cc2)=N[C@@]1(Cc1ccccc1)C(=O)NCC(O)CO (stereo partly drawn) : composite z-score value = 1.27

// C#C[C@H](O[Si](C#CCCCCCC)(C(C)C)C(C)C)c1ccccc1 : composite z-score value = -0.369

// COc1ccc([Si](C)(C)[C@H]2[C@H](CC(=O)N(CCO)Cc3ccccc3)O[C@@]3(C(=O)N(Cc4cccc(N5C(=O)c6cccc7cccc5c67)c4)c4ccccc43)[C@@H]2C)cc1 : composite z-score value = 0.803

// O=C1OCC=C[C@H]2OC34C=CCN(Cc5ccccc5)C(=O)[C@H]3N(CCCO)C(=O)[C@@H]4[C@@H]12 (stereo partly drawn) : composite z-score value = 0.995

// CC(c1ccccc1)C(O)C1C=CC2C(=O)N(Cc3ccccc3)C(=O)C2N1n1cnnc1 (stereo not drawn) : composite z-score value = 0.424

// CC(C)[Si]1(C(C)C)O[C@@H](c2ccccc2)c2cc(-c3ccc(-c4ccc(Cl)c(Cl)c4)o3)nc(CCc3ccccc3)c21 : composite z-score value = -0.708

// C=CCN1C(=O)[C@]2(COC(c3ccc(OCCCO)cc3)=N2)Cc2ccccc21 : composite z-score value = 1.31

// CCCNC(=O)[C@@]1(C)c2ccccc2C(=O)N(Cc2ccc(OC(F)(F)F)cc2)[C@H]1c1ccc(CO)cc1 : composite z-score value = 1.57

// O=C1C2C=CC(C(O)c3ccc(-c4ccccc4)s3)N(Nc3ccccc3F)C2C(=O)N1c1ccccc1 (stereo not drawn) : composite z-score value = 0.913

// CCCCC(=C=CC[C@H](O)c1ccccc1OCCO)C[C@H](O)c1cc(Cl)cc(Cl)c1O : composite z-score value = 1.26

// Cc1ccc(S[C@]2(C(=O)NCC(C)C)CC(=O)N(Cc3ccccc3)[C@@H]2c2ccc(CO)cc2)cc1 : composite z-score value = 0.959

// O=C(NCCN1CCOCC1)[C@@H]1c2ccccc2C(=O)N(Cc2cc(F)cc(C(F)(F)F)c2)[C@H]1c1ccc(CO)cc1 : composite z-score value = 1.07

// CCCCN1CC=CC23O[C@@H]4/C=C\CCCOC(=O)C4[C@H]2C(=O)N(C(C)CO)[C@@H]3C1=O (stereo partly drawn) : composite z-score value = 1.62

// CCCCCCCCCCC(O)C1C=CC2C(=O)N(c3ccccc3)C(=O)C2N1Nc1ccc([N+](=O)[O-])cc1 (stereo not drawn) : composite z-score value = 1.34
